FYI, the data here is from patent US20180009899A1.

assayedTarget: T1, Cellular CD73 on MDA-MB-231 human breast cancer cells (human, UniProt P21589 27-549)
T1 construct: whole, on cells; Endogenous CD73 on MDA-MB-231 cells; also called 5'-nucleotidase; ecto-5'-nucleotidase
T1 sequence (looked up): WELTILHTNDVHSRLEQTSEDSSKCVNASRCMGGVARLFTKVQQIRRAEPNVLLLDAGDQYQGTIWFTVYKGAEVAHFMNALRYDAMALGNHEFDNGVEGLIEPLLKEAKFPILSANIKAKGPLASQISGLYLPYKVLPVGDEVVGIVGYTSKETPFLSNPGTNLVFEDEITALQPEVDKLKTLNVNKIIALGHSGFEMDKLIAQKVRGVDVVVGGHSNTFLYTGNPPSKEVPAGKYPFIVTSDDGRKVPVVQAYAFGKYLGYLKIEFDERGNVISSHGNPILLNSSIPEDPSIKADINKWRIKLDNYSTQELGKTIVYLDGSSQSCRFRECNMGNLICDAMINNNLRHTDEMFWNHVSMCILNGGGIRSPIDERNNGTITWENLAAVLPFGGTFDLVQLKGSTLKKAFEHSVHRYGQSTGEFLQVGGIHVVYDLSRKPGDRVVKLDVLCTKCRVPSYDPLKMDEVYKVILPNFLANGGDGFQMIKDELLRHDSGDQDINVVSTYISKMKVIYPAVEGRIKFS
procedureDetails: flow cytometry on MDA-MB-231 cells, PE anti-human secondary

binder: CPX-014 (antibody, V domains shown, D at Kabat 27A of CDR L1, made in the CPX-006 light chain) VH: QVQLVQSGAEVEKPGASVKVSCKASGYTFTSYWITWVRQAPGQGLEWMGDIYPGSGNTNYNEKFKTRVTITADKSTSTAYMELSSLRSEDTAVYYCAKEGGLTTEDYALDYWGQGTLVTV VL: EIVLTQSPATLSLSPGERATLSCRASKDVSTSGYSYMHWYQQKPGQAPRLLIYLASNLESGIPPRFSGSGYGTDFTLTINNIESEDAAYYFCQHSRELPFTFGQGTKVEIK
binding result: binds
--
binder: CPX-012 (antibody, V domains shown) VH: QVQLVQSGAEVEKPGASVKVSCKASGYTFTSYWITWVRQAPGQGLEWMGDIYPGSGNTNYNEKFKTRVTITADKSTSTAYMELSSLRSEDTAVYYCAKEGGLTTEDYALDYWGQGTLVTV VL: AIQLTQSPSSLSASVGDRVTITCRASKQVSTSGYSYMHWYQQKPGQAPRLLIYLASNLESGVPSRFSGSGSGTDFTFTISSLEAEDAATYYCQHSRELPFTFGQGTKVEIK
binding result: binds
--
binder: CPX-008 (antibody, V domains shown, also called aglycosylated antibody) VH: QVQLVQSGAEVEKPGASVKVSCKASGYTFTSYWITWVRQAPGQGLEWMGDIYPGSGNTNYNEKFKTRVTITADKSTSTAYMELSSLRSEDTAVYYCAKEGGLTTEDYALDYWGQGTLVTV VL: EIVLTQSPATLSLSPGERATLSCRASKQVSTSGYSYMHWYQQKPGQAPRLLIYLASNLESGIPPRFSGSGYGTDFTLTINNIESEDAAYYFCQHSRELPFTFGQGTKVEIK
binding result: binds
